Source listed as the supplement of paper PMC12455559.

- test summary: PET hydrolysis, aromatic products released after 48 h (umol product/mg enzyme); higher = more PET depolymerization activity
- test conditions: substrate: cryPow; 40 °C; pH 5.5
value type: PET hydrolysis

# PET hydrolysis (sequence: FSAPGPSAPCSNCTRGPAPTVASLKASSGPFSTAKFSVSGYLKGFGNSTVYYPTNTSGKMGAIAVIPGYLSYESSIEWWGPRLASHGFVVMTMNTNSIYDQPDSRATQLSKALDYLISQSGSSSSPIYGKVDSSRLGAIGWSMGGGGSLKLSTQRSINAIIPQAPWYLGSNTFNTIKTPALILACSADTVAPVYQHASPFYNRIPTSTPKAFLEIYGGSHFCANSGYPNEDLLGMYGIAWMKRFIDFDSRYSQFLCGPNHESDYAISEYRQNCPY [ESM017] ) is < 3

# PET hydrolysis (sequence: SNPTPTPTPTPTPTPTPGNNPFQRGPNPTLSFIEANSGPYSVRTSRVSSYTSGFGGGTIHYPTGQSGTMGAIVVIPGFVSAESSIEWWGPKLASHGFVVMTIDTNSGFDQPPSRARQINAALDYLVAQNRSSRSPVRGMIDTNRLGVVGWSMGGGGTLRVASEGRIKAAIPLAPWDTTSFRNVKAPTLIFACESDVIAPVGQHASPFYNELPSNISKAFVELNGGSHYCGNGGNSYNDVLSRFGVSWMKRFLDNDTRYSQFLCGPNHTSDRDISEYRGNCNY [ESM042] ) is < 3

Proceed to the following item.
# PET hydrolysis (sequence: ATYERGPAPTAQSIVADGPFSYATVAVPTQSSFGGGTIYYPTDTNQGTFGAVAVIPGFVGSLDNVAWIGSRLASHGFVVFTVATTNPFAFPGDRAAQLQAALTYLTQSSSVRDRVDPNRLAVAGHSMGGGGALEAVRNNPALKAAVALQPWDFGQNFSAIAVPSMIVGAQNDQVATVTSHSEPFYDQIPAGAEKAYLELAGAGHDAGQSVSNATQAGSMLSWLKRYVDEDTRYEQFLCPAPSGPSVAEYRDTCPA [DP045] ) is < 3

###

Give measured PET hydrolysis for each item. Keep answers brief.
- test summary: PET hydrolysis, aromatic products released after 48 h (umol product/mg enzyme); higher = more PET depolymerization activity
- test conditions: substrate: cryPow; 60 °C; pH 6.5

Past entries and their recorded results:
# PET hydrolysis (sequence: QYQKGPDPTVAGLERDGTFAIRTTTVSRLSASGFGGGTIYYPTATGSYGVVAVSPGFTAYQSSISWIGSRLASHGFVVITIDTNTTSDQPDSRARQLKAALDKVVSLASSRTNVLYGKVDSSRLAVAGHSMGGGGSLAAARDYPSLKASVPLAPWHTTKSFSTVRVPTLIVGADGDTVASVTSHSIPFYTSIPSSTPKGYLELNNEDHFFPQDSGEYGLVGKYMISWFKRFVDSDTRYSPFLCGAPHQTQIANTLRVSDSRTNCPY [DP038] ) is < 3

# PET hydrolysis (sequence: GSLAHIVMVDAYKPTKGSGASQTNPYARGPNPTAASLEASAGPFTVRSFTVSRPSGYGAGTVYYPTNAGGTVGAIAIVPGYTARQSSIKWWGPRLASHGFVVITIDTNSTFDYPSSRSSQQMAALRQVASLNGDSSSPIYGKVDTARMGVMGHSMGGGASLRSAANNPSLKAAIPQAPWDSQTNFSSVTVPTLIFACENDSIAPVNSHALPIYDSMSRNAKQFLEINGGSHSCANSGNSNQALIGKKGVAWMKRFMDNDTRYSTFACENPNSTAVSDFRTANCSLEGSGGSGAHIVMVDAYKPTK [TEP004] ) is 76

# PET hydrolysis (sequence: ADNPYERGPAPTEASVEAPRGPYAVSETTVSPLAVTGFGGGTVYYPTSTADGTFGAIAVSPGYTGTQSSIAWLGPRLASQGFVVFTIDTLTTLDQPDSRGRQLLAALDYLTQKSSVRGRIDSTRLGVMGHSMGGGGSLEAAKSRPSLQAAIPLTPWNLDKTWPEVATPTLIFGADGDTIAPVATHAEPFYTSLPASLDRAYLELNGATHFTPNTSNTTIAKYSIAWLKRFIDDDTRYEQFLCPLPRPGLTIEEYRGNCPHTS [TEP117] ) is < 3

# PET hydrolysis (sequence: ATTSYQRGPNPTEQSVRAANGPFAYSQFAIPDAEATGFGEGTIYYPNNTSVGTFGGVVIAPGFNADQNSTVWLGKRLASHGFVAVTITTHELNDQPYERGKQILAALDYLTGQSPAFVRSRLDPARLAAVGHSMGGGGTLFAAAQRPSLKAIVPLAPWALAKNWSNVQVPTMILSGAQDASAPPAEHAEKFYASLTSAPEKAYAKLDVNHVRFAWEHPLIGKLVVSWLKRFVDEDTRYTQFLCPTATGAVLLEYRATCPLG [DP026] ) is < 3

Proceed to the following item.
# PET hydrolysis (sequence: ADNPHQRGPNPTQASITANRGTFATAETSVGGGNGFGAAKIYYPTDTSQGTFGAIAVVPGYTATWAAEGAWMGHWLASFGFVVIGIDTLNRNDFDVARGTQLLAALDYLTQRSSVRTRVDPNRLAVMGHSMGGGGTISAALRWPTLKAAIGLAPYSPSQTTSGLQVPTMLLAGQNDGTSTPASIISLYNNIPASTEKSYLELAGAGHGFPTSNNSVMTRKVIPWMKIFIDQDARYTQFLCPLQDWTGIRSYRSSCPLLPGATFSLAGSASGKCVDVPGRVQTNGTGLIIWTCNGAVNQQWTRTAAGELRIYDNAKCMDANASGPGTRVTINSCNGGNSQKWTVNANGTVTNAASGRCIDTGGTADNAPVVVNTCTGGTSQT [ESM163] ) is < 3
